Ref: ChEMBL document CHEMBL1201862

Tested on: HCT-116
Assay: NCI tumour cell line growth inhibition, 48 h
The source made the active and inactive calls. Rule as the data show it: active = GI50 up to about 1.1 µM and inactive = higher.
measured-parameter: GI50

- CCC12C=CCN3CCC4(C(=C(C(=O)OC)C1)Nc1ccccc14)[C@H]32 (stereo partly drawn): 30.8 µM (inactive)

Exam item: Entry CCCCCCC(/C=N/O)C(C)(O)CCC (stereo not drawn) has what GI50?
Marked response: 91.4 µM (inactive)

Exam item: For NC(=S)N1N=C(c2ccc3c(c2)CCC3)CC1c1ccccc1 (stereo not drawn) , what is its reported GI50?
Marked response: 22 µM (inactive)

Exam item: Given Clc1ccc(/N=C/C=C/Nc2ccc(Cl)cn2)nc1 , state its recorded GI50.
Marked response: 12.2 µM (inactive)

Exam item: Recorded GI50 for CCCNC(=O)CCC(C)C1CCC2C3C(C[C@H](OC(C)=O)[C@]12C)[C@@]1(C)CCC2(C[C@H]1C[C@H]3OC(C)=O)OOC1(CC[C@]3(C)C4C[C@H](OC(C)=O)[C@]5(C)C(C(C)CCC(=O)NCCC)CCC5C4[C@H](OC(C)=O)C[C@@H]3C1)OO2 (stereo partly drawn) , please?
Marked response: > 100 µM (inactive)

Exam item: Find the recorded GI50 belonging to COc1cc2ccc3c4cc(OC)c(OC(C)C)cc4cnc3c2cc1OC and report it.
Marked response: > 100 µM (inactive)

Exam item: Entry C(=N/c1ccccc1C1SCCCS1)/c1ccccc1 : reported GI50 = ?
Marked response: > 100 µM (inactive)

Exam item: So what does the record say about GI50 for CC(C)NC(C)Cc1ccccc1 (stereo not drawn) ?
Marked response: > 100 µM (inactive)

Exam item: Entry CC(C)=CC(=O)c1[nH]c2ccccc2c1CC(=O)NCCc1cncn1C : reported GI50 = ?
Marked response: 67.9 µM (inactive)

Exam item: Could you share which GI50 value was measured for CC(=O)OCCCCn1cnc2nc(Nc3ccccc3)nc(Cl)c21 ?
Marked response: 72.4 µM (inactive)

Exam item: Reported GI50, compound CC(C)(C)OC(=O)[C@@H]1ON2O[C@H](OC3CCCC3(c3ccccc3)c3ccccc3)C[C@H]3OC(=O)[C@@H]1[C@H]32 (stereo partly drawn) : ____
Marked response: 32 µM (inactive)

Exam item: Any idea what GI50 was measured for COc1ccc(-c2nnc(-c3nsc4ccccc34)o2)cc1 ?
Marked response: 38.4 µM (inactive)

Exam item: # query: GI50 of entry Cc1ccc(S(=O)(=O)NC(=O)Nc2cc(Cl)c(S(N)(=O)=O)cc2S(N)(=O)=O)cc1
Marked response: > 100 µM (inactive)

Exam item: // GI50 lookup, key: CCOC(=O)C1(C(=O)OCC)CCCN1C(=O)[C@H](CNC(=O)OC(C)(C)C)NC(=O)OCc1ccccc1
Marked response: > 100 µM (inactive)

Exam item: Reported GI50, compound C/C(=N/NC(=O)c1ccccc1Nc1ccccc1C(=O)N/N=C(\C)c1ccc(C)cc1)c1ccc(C)cc1 : ____
Marked response: 53.3 µM (inactive)

Exam item: Returns the measured GI50 for the input compound. Input: O=C(NC1C(O)C(O)C(CO)OC1n1cc(F)c(=O)[nH]c1=O)OCc1ccccc1 (stereo not drawn)
Marked response: > 100 µM (inactive)

Exam item: Requested field: GI50. Item: CO[C@@]12C[C@H](CNC(=O)c3ccc[nH]3)O[C@@H]1NC(=O)N2
Marked response: > 100 µM (inactive)

Exam item: Could you tell me which GI50 is on file for CCN(CC)CCN(C(=O)c1ccc(F)cc1)c1ccccc1N ?
Marked response: > 10 µM (inactive)

Exam item: Using the record for c1cc(CNCCN2CCNCC2)ccn1 , report its GI50.
Marked response: > 100 µM (inactive)

Exam item: Quick one: GI50 for CCOC(=O)C1=C(Nc2ccc(Br)cc2)OC/C1=N\NC(=O)c1ccccc1O ?
Marked response: 10.1 µM (inactive)

Exam item: Could you share which GI50 value was measured for CSc1ccc(NC(=O)CCl)cc1 ?
Marked response: 3.03 µM (inactive)

Exam item: Quick one: GI50 of O=C(c1ccco1)N(C(=S)OCc1ccccn1)c1ccccc1 ?
Marked response: > 100 µM (inactive)

Exam item: Could you share which GI50 value was measured for C[C@]12CC[C@H]3[C@@H](CCC4=C[C@@H](N5CCCC5)CC[C@@]43C)[C@@H]1C/C(=C\c1ccncc1)[C@@H]2O ?
Marked response: 7.91 µM (inactive)

Exam item: I am curious: what GI50 value has been reported for Cc1ccc(/N=N/c2c(O)c3ccccc3[nH]c2=O)c(S(=O)(=O)N(C)C)c1 ?
Marked response: > 100 µM (inactive)

Exam item: Which GI50 is reported for this compound? COC(=O)C1=C(C)N(NC(=O)c2cccc(Cl)c2)C(C)(O)C12CCOC2=O (stereo not drawn)
Marked response: > 100 µM (inactive)

Exam item: Look at this compound and give its reported GI50. N#Cc1c2ccc([N+](=O)[O-])cc2c(=O)n2c1[nH]c1ccc(C(F)(F)F)cc12
Marked response: 10.1 µM (inactive)

Exam item: Item C=Cc1c(C)c(OC)cc2c1Oc1ccc(OC)c(C)c1CC2 has what recorded GI50?
Marked response: > 100 µM (inactive)

Exam item: Look at this compound and give its reported GI50. C[Si](C)(C)C(CCCCSc1ccccc1)(Sc1ccccc1)Sc1ccccc1
Marked response: > 100 µM (inactive)

Exam item: Which measured GI50 value corresponds to COC(=O)c1c2n(c3ccccc13)C[C@H]1OC(C)(C)O[C@@H]21 ?
Marked response: > 100 µM (inactive)

* * *

Test system: OVCAR-8
Assay: NCI tumour cell line growth inhibition, 48 h
Calls of active or inactive are those of the source. No stated cut-off is given here; in the data, active = GI50 up to about 1.1 µM and inactive = higher.
Entries and their measured GI50 follow.

Study these solved cases before continuing.
• O=C1NC2(CCN(CCc3ccccc3)CC2)Oc2ccccc21 = 64.7 µM (inactive)
• CCCCC(=O)c1c(O)ccc2c(C)cc(=O)oc12 = > 100 µM (inactive)
• CC1(C)N=c2c(ncn2-c2ccccc2)=C(C(N)=O)N1 = > 100 µM (inactive)
• O=c1cnn2c(n1)sc1ccc3ccccc3c12 = > 100 µM (inactive)

Now consider the entry below.
Exam item: # GI50 lookup, item Cn1c(=O)c2[nH]c(CCC(=O)O)nc2n(C)c1=O
Marked response: > 100 µM (inactive)

* * *

Tested on: IGROV-1
Test: NCI tumour cell line growth inhibition, 48 h
Calls of active or inactive are those of the source. Cut-off read from the data, not from the text of the source: active = GI50 up to about 1.1 µM and inactive = higher.
Outcome field: choose from active, inactive

Use these answered entries as a reference point.
• CCOC(=O)c1ccc(OCc2nc3cc(C(F)(F)F)ccc3nc2-c2ccccc2)cc1 = inactive
• NC(=O)c1coc(C2OC(CO)C(O)C2O)n1 (centres undefined) = inactive
• C[C@]12C=CC(=O)C=C1CC[C@@H]1[C@@H]2C(=O)C[C@@]2(C)[C@H]1CC[C@]2(O)C(=O)CO = inactive
• Cc1cc(N(CCC#N)CCC#N)ccc1/C=C1N=C(/C=C/c2ccccc2)OC(=O)N\1 = inactive

Exam item: Per the assay record, what outcome was assigned to CC(C)(C)C1(COC(=O)c2ccc(N)cc2)COC1 ?
Marked response: inactive

Exam item: Kindly provide the recorded test outcome for the following compound: CC(C)NC(C)Cc1ccccc1 (centres undefined)
Marked response: inactive

Exam item: In this assay, the call recorded for CC(=O)NC(CC(C)C)C(=O)NC(Cc1ccccc1)C(=S)N1CCCC1 (centres undefined) was what?
Marked response: inactive

* * *

Tested on: M14
Assay: NCI tumour cell line growth inhibition, 48 h
Calls of active or inactive are those of the source. No stated cut-off is given here; in the data, active = GI50 up to about 1.1 µM and inactive = higher. Peptide text beside a SMILES is read from it. * marks the point of attachment. Boc = CC(C)(C)OC(=O)*; OBn = c1ccc(CO*)cc1; Bn = c1ccc(C*)cc1
measured-parameter: GI50

Examples from the recorded data:
• CC(C)(C)[Si](C)(C)OC1CCOC1(O)c1ccccn1 (stereo not drawn) = > 100 µM (inactive)
• CCOC(=O)NC(=O)c1cn(C2OC(COC(=O)CCCCCCCCC(=O)OCC3OC(n4cc(C(=O)NC(=O)OCC)c(=O)[nH]c4=O)C4OC(C)(C)OC34)C3OC(C)(C)OC32)c(=O)[nH]c1=O (stereo not drawn) = 63.4 µM (inactive)
• Cc1cccc2c1NC(=O)/C2=N\Nc1ccccc1[N+](=O)[O-] = 19.4 µM (inactive)

Exam item: Using the record for Nc1nc(-c2ccccc2)nc2c1[n+]([O-])c1ccccc1[n+]2[O-] , report its GI50.
Marked response: > 100 µM (inactive)

Exam item: Given the compound Cc1cc(C)n(C(=O)CSc2nnc(SCC(=O)n3nc(C)cc3C)s2)n1 , what is its reported GI50?
Marked response: > 100 µM (inactive)

Exam item: Look up GI50 for this compound: O=Cc1ccc(CCl)cc1
Marked response: 14.8 µM (inactive)

Exam item: Which GI50 is reported for this compound? CCCn1c(C23CC4CC(CC(C4)C2)C3)nc2ccc(Cl)cc2c1=O
Marked response: 26.1 µM (inactive)

Exam item: Item CC(C)CC(NC(=O)C(CCC(=O)OCc1ccccc1)NC(=O)OC(C)(C)C)C(=O)NC(COCc1ccccc1)C(=O)NC(Cc1ccccc1)C(=O)O (stereo not drawn) (Boc-E(OBn)LS(Bn)F-OH; configuration not given here) has what recorded GI50?
Marked response: > 100 µM (inactive)

Exam item: Requested field: GI50. Item: N#CC(NNC(=O)Cc1ccccc1)c1ccc(O)cc1 (stereo not drawn)
Marked response: > 100 µM (inactive)

Exam item: Requested field: GI50. Item: COc1ccc(-c2nnc(-c3nsc4ccccc34)o2)cc1
Marked response: 80.9 µM (inactive)

Exam item: What measured GI50 goes with Cc1cc(N(CCC#N)CCC#N)ccc1/C=N/NC(=O)c1cc(Cl)ccc1O ?
Marked response: > 100 µM (inactive)

Exam item: Looking for the measured GI50 of COC(=O)c1sc(=O)sc1SCc1cccc(CSc2sc(=O)sc2C(=O)OC)c1 , can you help?
Marked response: 36.4 µM (inactive)

Exam item: Given the entry CC1(C)CC(=O)C2=C(C1)C(c1ccccc1Cl)C1C(=O)CC(C)(C)CC1(O)O2 (stereo not drawn) , report its measured GI50.
Marked response: 98.2 µM (inactive)

Exam item: If you can, please state the reported GI50 value of CC(=O)c1sc(=N)n(-c2c(C)cccc2C)c1C .
Marked response: > 100 µM (inactive)

Exam item: // query GI50 value for entry O=[N+]([O-])c1ccc(C2c3c(O)nc(O)nc3Oc3nc(O)nc(O)c32)cc1
Marked response: > 100 µM (inactive)

Exam item: What value of measured GI50 is listed for Cc1cc(S(=O)(=O)Nc2nc(N)nc(N3N=CCC3C)n2)c(S)cc1Cl (stereo not drawn) ?
Marked response: > 10 µM (inactive)

Exam item: GET /values?readout=GI50&item= CC[C@H](C)C1=C(O)[N@+]2([O-])Oc3ccc(-c4c(O)c(O)c(-c5ccc(O)cc5)c(OC(C)=O)c4OC(C)=O)cc3O[C@]2([C@@H](C)CC)C(=O)N1O
Marked response: 30.2 µM (inactive)
